Test system: BaF3
Assay: Proliferation of BaF3 cells, CCK8 cell viability assay
Format: cell-based
Conditions: Mus musculus, 72 hours
Quantity Measured: GI50

Sample answers from the record:
CC(=O)Nc1cc(Oc2ccc(NC(=O)Cc3cccc(Oc4ccccc4)c3)cc2)ncn1	> 10 µM
CCCCC(=O)Nc1cc(Oc2ccc(NC(=O)Cc3ccccc3C(F)(F)F)cc2)ncn1	> 10 µM
Cc1ccc(NC(=O)Nc2ccc(Oc3cc(N4CCNC[C@@H]4C)ncn3)cc2)cc1C(F)(F)F	8.12 µM
CC(=O)Nc1cc(Oc2ccc(NC(=O)C(O)c3ccccc3F)cc2)ncn1 (stereo not drawn)	> 10 µM
CC(=O)Nc1cc(Oc2ccc(NC(=O)Cc3ccccc3F)cc2)ncn1	> 10 µM
Cc1ccc(NC(=O)Nc2ccc(Oc3cc(N(C)CCO)ncn3)cc2)cc1C(F)(F)F	7.21 µM
Cc1ccc(NC(=O)Nc2ccc(Oc3cc(N[C@@H](C)C(=O)O)ncn3)cc2)cc1C(F)(F)F	> 10 µM
Cc1ccc(NC(=O)NC2CCC(Oc3cc(NCCNC(=O)OC(C)(C)C)ncn3)CC2)cc1C(F)(F)F (stereo not drawn)	1.17 µM
CC(=O)Nc1cc(Oc2ccc(CC(=O)N(C)c3ccc(Br)cc3)cc2)ncn1	> 10 µM
CC(=O)Nc1cc(Oc2ccc(NC(=O)C(C)c3ccc(C)cc3)cc2)ncn1 (stereo not drawn)	> 10 µM

compound C=CC(=O)NCCNc1cc(Nc2ccc(CC(=O)Nc3ccc(C)c(C(F)(F)F)c3)cc2)ncn1 , GI50 observed: > 10 µM

Lab note: measured GI50 of CC(=O)Nc1cc(Oc2ccc(CC(=O)Nc3cccc(Cl)c3C(F)(F)F)cc2)ncn1 was > 10 µM

###

Test system: Tel-cKit/T670I-BaF3
Assay: Proliferation of Tel-cKit/T670I-BaF3 cells, CCK8 cell viability assay
Format: cell-based
Settings: Mus musculus, 72 hours, stably expressing cKIT/T670I
Quantity Measured: GI50 (µM)

// below: answered molecules
CCCCC(=O)Nc1cc(Oc2ccc(NC(=O)Cc3ccccc3C(F)(F)F)cc2)ncn1	6.3
CC(=O)Nc1cc(Nc2ccc(NC(=O)Cc3cccc(C(F)(F)F)c3)cc2)ncn1	4.61
CC(=O)Nc1cc(Oc2ccc(CC(=O)Nc3ccc(C(F)(F)F)cc3)cc2)ncn1	0.036
Cc1ccc(NC(=O)NC2CCC(Oc3cc(NCCNC(=O)OC(C)(C)C)ncn3)CC2)cc1C(F)(F)F (stereo not shown)	2.27

[P] Cc1ccc(NC(=O)Nc2ccc(Oc3cc(NCCN4CCCC4)ncn3)cc2)cc1C(F)(F)F
[Q] CC(=O)Nc1cc(Oc2ccc(NC(=O)Cc3ccc(C)c(C)c3)cc2)ncn1
Enquiry: Select one: P or Q . Criterion: greater recorded GI50. // return label of chosen record
Return: Q

###

Test system: BaF3
Assay: Proliferation of BaF3 cells, CCK8 cell viability assay
Assay type: cell-based
Settings: Mus musculus, 72 hours
Quantity Measured: GI50 (µM)

[P] COc1ccc(CNc2cc(Oc3ccc(NC(=O)Nc4ccc(CN5CCNCC5)c(C(F)(F)F)c4)cc3)ncn2)cc1 [Example 180]
[Q] Cc1ccc(NC(=O)Nc2ccc(Oc3cc(NCCN4CCCC4)ncn3)cc2)cc1C(F)(F)F [Example 122]
Enquiry: Decide: P or Q , by lowest recorded GI50. State the label of the item chosen.
Return: Q
